system: human IgEλ (U266 derived) (human, UniProt P01854 1-546)
Sequence (P01854 whole entry): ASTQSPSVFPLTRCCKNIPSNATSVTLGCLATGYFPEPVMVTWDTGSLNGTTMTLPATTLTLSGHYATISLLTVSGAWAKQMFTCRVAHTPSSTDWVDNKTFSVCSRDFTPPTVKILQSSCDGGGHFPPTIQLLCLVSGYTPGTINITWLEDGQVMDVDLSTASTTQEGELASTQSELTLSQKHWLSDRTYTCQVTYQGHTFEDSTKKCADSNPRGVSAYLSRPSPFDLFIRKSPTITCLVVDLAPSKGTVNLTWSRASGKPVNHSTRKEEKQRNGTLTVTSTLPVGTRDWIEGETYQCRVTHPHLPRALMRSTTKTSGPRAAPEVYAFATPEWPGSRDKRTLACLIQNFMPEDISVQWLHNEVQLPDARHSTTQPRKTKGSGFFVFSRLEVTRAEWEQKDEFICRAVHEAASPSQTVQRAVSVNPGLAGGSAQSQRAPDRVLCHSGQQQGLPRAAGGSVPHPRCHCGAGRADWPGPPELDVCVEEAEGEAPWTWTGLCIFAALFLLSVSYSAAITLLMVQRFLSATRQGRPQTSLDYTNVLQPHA
measurement-protocol: cell-based or functional assay
reported-endpoint: RBL-ER51 calcium signalling IC50 (nM) Geomean, human IgE 25 ng/ml

- Antibody 9 (IgG) (antibody, V domains shown) VH: EVQLLESGGGLVQPGGSLRLSCAASGFTFSSYAMSWVRQAPGKGLEWVSAISGGSGGRTYYADSVKGRFTISRDNSKNTLYLQMNSLRAEDTAVYYCARHIAVAGTRGFDYWGRGTLVTVSS VL: SFVLSQPPSVSVSPGQTASITCSGDKLGDTYASWYRQRSGQSPVLVIYQDDKRPSGIPERFSGSNSGNTATLTISGTHTMDEADYYCLAWDTRTSGAVFGGGTKLTVL: 0.286 nM
- Antibody 26 (IgG) (antibody, V domains shown) VH: EVQLLESGGGLVQPGGSLRLSCAASGLTFSGYAMSWVRQAPGKGLEWVSAISGSGGRTYYADSVKGRFTISRDNSKNMLYLQMNSLRAEDTAVYYCARHIAVAGTRGFDYWGRGTLVTVSS VL: SFVLTQPPSVSVSPGQTASITCSGDKLGDTYASWYRQRSGQSPVLVIYQDDKRPSGIPERFSGSNSGNTATLTIGGTHTMDEADYYCLAWDTRTSGAVFGGGTKLTVL: 1.2 nM
- Antibody 15 (IgG) (antibody, V domains shown) VH: EVQLLESGGGLVQPGGSLRLSCAAPGFTFSSYAMSWVRQAPGKGLEWVSAISGGSGGRTYYADSVKGRFTISRDNSKNTLYLQMNSLRAEDTAVYYCARHIAVAGTRGFDYWGRGTLVTVSS VL: SYVLTQPPSVSVSPGQTASITCSGDKLGDTYASWYRQRSGQSPVLVIYQDDRRPSGIPERFSGSNSGNTATLTISGTHTMDEADYYCLAWDTRTSGAVFGGGTKLTVL: 0.341 nM

Consider the record given below.
Exercise: Report RBL-ER51 calcium signalling IC50 (nM) Geomean, human IgE 25 ng/ml for Antibody 34 (IgG) (antibody, V domains shown) VH: EVQLLESGGGLVQPGGSLRLSCAAPGFTLSSYAMSWVRQAPGKGLEWVSAISGGSGGRTYYADSVKGRFTISRDNSKNTLYLQMNSLRAEDTAVYYCARHIAVAGTRGFDYWGRGTLVTVSS VL: SYVLTQPPSVSASPGQTASITCSGDKLGDTYASWYRQRSGQSPVLVIYQDDKRPPGIPERFSGSNSGNTATLTIRGTHTMDEADYYCLAWDTRTSGAVFGGGTKLSVL
Solution: 0.223 nM
